Biological target: human GPR40 receptor (Homo sapiens, UniProt O14842)
Sequence (O14842 whole entry): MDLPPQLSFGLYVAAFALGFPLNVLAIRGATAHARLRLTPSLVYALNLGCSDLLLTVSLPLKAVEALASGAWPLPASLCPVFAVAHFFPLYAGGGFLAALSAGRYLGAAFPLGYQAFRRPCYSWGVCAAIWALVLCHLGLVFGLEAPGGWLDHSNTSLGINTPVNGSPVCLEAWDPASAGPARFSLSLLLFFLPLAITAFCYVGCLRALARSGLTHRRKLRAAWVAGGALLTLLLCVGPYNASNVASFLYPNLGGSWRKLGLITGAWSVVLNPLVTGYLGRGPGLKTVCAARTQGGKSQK
Assay: IP1 accumulation measurements using the IPOne assay system (1321N1 cells stably expressing human GPR40 receptor)
Settings: 1321N1 cells expressing human GPR40, 1 h stimulation at 37° C.
Some molecules, each annotated with its measured EC50.
Give your result in nM as a bare value.

Previously resolved entries follow.
[Q] Reported EC50 for Cc1cc(OCC(C)(C)O)cc(C)c1-c1cccc2c1CC[C@H]2Nc1ccc([C@H]2C[C@@H]2C(=O)O)cn1 [Example 79] : what is it?
[A] 23

[Q] Reported EC50 for CC(C)c1ccccc1-c1ccc(F)c2c1CC[C@H]2Nc1ccc([C@H]2C[C@@H]2C(=O)O)cn1 [Example 47] : what is it?
[A] 26

[Q] Reported EC50 for COc1cc(F)c(-c2ccc(F)c3c2CC[C@H]3Nc2ccc([C@H]3C[C@@H]3C(=O)O)cn2)c(F)c1 [Example 56] : what is it?
[A] 151

Further cases:
[Q] Reported EC50 for Cc1cc(-c2ccc(=O)n(C)c2)cc(C)c1-c1ccc(F)c2c1CC[C@H]2Nc1ccc([C@H]2C[C@@H]2C(=O)O)cn1 [Example 37] : what is it?
[A] 11

[Q] Reported EC50 for Cc1nc(-c2cc(C)c(-c3ccc(F)c4c3CC[C@H]4Nc3ccc([C@H]4C[C@@H]4C(=O)O)cn3)c(C)c2)no1 [Example 26] : what is it?
[A] 4

* * *

Molecular target: cytochrome P450 2C9-isoenzyme (Homo sapiens, UniProt P11712)
Construct: from tissue; host or cells: human liver microsomes
Sequence (P11712 whole entry): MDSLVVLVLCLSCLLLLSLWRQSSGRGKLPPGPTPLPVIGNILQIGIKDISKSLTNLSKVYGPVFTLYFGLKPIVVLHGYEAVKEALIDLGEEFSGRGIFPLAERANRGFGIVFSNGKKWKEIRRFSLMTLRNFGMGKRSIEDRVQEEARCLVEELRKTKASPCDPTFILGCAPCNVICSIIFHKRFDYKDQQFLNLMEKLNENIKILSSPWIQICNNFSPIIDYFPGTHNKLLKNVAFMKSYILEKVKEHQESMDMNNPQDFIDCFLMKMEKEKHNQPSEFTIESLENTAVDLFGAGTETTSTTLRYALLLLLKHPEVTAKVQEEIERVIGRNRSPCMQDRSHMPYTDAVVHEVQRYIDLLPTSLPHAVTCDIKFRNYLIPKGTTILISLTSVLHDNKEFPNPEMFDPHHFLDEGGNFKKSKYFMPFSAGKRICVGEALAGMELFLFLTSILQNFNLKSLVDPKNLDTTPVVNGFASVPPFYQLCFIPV
Assay: Inhibition of CYP-2C9 (hydroxylation of diclofenac, human liver microsomes)
Assay type: in vitro ADME
Conditions: CYP-2C9, human liver microsomes, diclofenac 10 μM, 37° C.
property.name: IC50 (µM)
Give your result in µM as a bare value.

Previously resolved entries follow.
[Q] Reported IC50 for COc1cc(OC)c(Cl)c(-c2ccc(F)c3c2CC[C@H]3Nc2ccc([C@H]3C[C@@H]3C(=O)O)cn2)c1Cl : what is it?
[A] 14

[Q] Reported IC50 for O=C(O)[C@H]1C[C@@H]1c1ccc(N[C@@H]2CCc3c(-c4c(F)cc(OC5CC5)cc4F)ccc(F)c32)nc1 : what is it?
[A] 9

[Q] Reported IC50 for COc1cc(OC)c(F)c(-c2ccc(F)c3c2CC[C@H]3Nc2ccc([C@H]3C[C@@H]3C(=O)O)cn2)c1F : what is it?
[A] 48

Further cases:
[Q] Reported IC50 for O=C(O)[C@H]1C[C@@H]1c1ccc(N[C@@H]2CCc3c(-c4c(Cl)cccc4Cl)ccc(F)c32)nc1 : what is it?
[A] 22

* * *

Some compounds, each annotated with its measured Amount of degradation after 2 h.
Assay: Chemical stability: degradation kinetics in acidic aqueous media (pH ca. 1.2), HPLC recovery
Format: physicochemical
Conditions: pH value of ca. 1.2 (acetonitrile/0.1 M aqueous HCl 2:3), 37° C.

Previously resolved entries follow.
[Q] Reported Amount of degradation after 2 h for Cc1cc(-c2nnn(C)n2)cc(C)c1-c1cccc2c1CC[C@H]2Nc1ccc([C@H]2C[C@@H]2C(=O)O)cn1 [Example 1] : what is it?
[A] <0.5%

[Q] Reported Amount of degradation after 2 h for O=C(O)[C@H]1C[C@@H]1c1ccc(N[C@@H]2CCc3c(-c4ccccc4C(F)(F)F)ccc(F)c32)nc1 [Example 74] : what is it?
[A] <1.0%

[Q] Reported Amount of degradation after 2 h for O=C(O)[C@H]1C[C@@H]1c1ccc(N[C@@H]2CCc3c(-c4c(Cl)cccc4Cl)ccc(F)c32)nc1 [Example 50] : what is it?
[A] <1.0%

[Q] Reported Amount of degradation after 2 h for Cc1nc(-c2cc(C)c(-c3ccc(F)c4c3CC[C@H]4Nc3ccc([C@H]4C[C@@H]4C(=O)O)cn3)c(C)c2)no1 [Example 26] : what is it?
[A] <0.5%

[Q] Reported Amount of degradation after 2 h for COc1cc(F)c(-c2ccc(F)c3c2CC[C@H]3Nc2ccc([C@H]3C[C@@H]3C(=O)O)cn2)c(F)c1 [Example 56] : what is it?
[A] <0.5%

[Q] Reported Amount of degradation after 2 h for Cc1cc(C(N)=O)cc(C)c1-c1ccc(F)c2c1CC[C@H]2Nc1ccc([C@H]2C[C@@H]2C(=O)O)cn1 [Example 21] : what is it?
[A] <0.5%

The record that follows has no Amount of degradation after 2 h shown yet.
[Q] Reported Amount of degradation after 2 h for Nc1cc(F)c(-c2ccc(F)c3c2CC[C@H]3Nc2ccc([C@H]3C[C@@H]3C(=O)O)cn2)c(F)c1 [Example 58] : what is it?
[A] <0.5%

Sourced from patent US9617251B2
